Assay: activity coefficient (dimensionless); of the first substance listed, at infinite dilution; xn = mol fraction of the nth substance listed
Conditions: 343.15 K; Liquid; Chromatography; x1 = 0
Attribute: activity coefficient

{"COMPOUND": "CCCCCCCCCCC [undecane] + CCCOC[n+]1ccn(Cc2ccccc2)c1.F[B-](F)(F)F", "activity coefficient": 286}
{"COMPOUND": "CO [methanol] + CCCOC[n+]1ccn(Cc2ccccc2)c1.N#C[N-]C#N", "activity coefficient": 0.4}
{"COMPOUND": "CCCCO [butan-1-ol] + CCCCCCCCn1cc[n+](COCCCOC[n+]2ccn(CCCCCCCC)c2C)c1C.N#C[N-]C#N.N#C[N-]C#N", "activity coefficient": 4.81}
{"COMPOUND": "Cc1cccc(C)c1 [1,3-dimethylbenzene] + N#C[N-]C#N.N#C[N-]C#N.c1ccc(Cn2cc[n+](COCCCOC[n+]3ccn(Cc4ccccc4)c3)c2)cc1", "activity coefficient": 8.32}
{"COMPOUND": "CCCCCCCCC [nonane] + CN(C)c1cc[n+](COCCCOC[n+]2ccc(N(C)C)cc2)cc1.O=S(=O)([N-]S(=O)(=O)C(F)(F)F)C(F)(F)F.O=S(=O)([N-]S(=O)(=O)C(F)(F)F)C(F)(F)F", "activity coefficient": 47.2}
{"COMPOUND": "CCO [ethanol] + CCCCCCCCn1cc[n+](COCCCOC[n+]2ccn(CCCCCCCC)c2C)c1C.N#C[N-]C#N.N#C[N-]C#N", "activity coefficient": 0.29}
{"COMPOUND": "CCCO [propan-1-ol] + CCCOC[n+]1ccc(N(C)C)cc1.O=S(=O)([N-]S(=O)(=O)C(F)(F)F)C(F)(F)F", "activity coefficient": 1.53}
{"COMPOUND": "CC1CCCCC1 [methylcyclohexane] + CCCOC[n+]1ccn(Cc2ccccc2)c1.N#C[N-]C#N", "activity coefficient": 18.2}
{"COMPOUND": "CCCCCCC [heptane] + CCCCCCCCn1cc[n+](COCCC)c1C.O=S(=O)([N-]S(=O)(=O)C(F)(F)F)C(F)(F)F", "activity coefficient": 3.98}
{"COMPOUND": "CCCCCC [hexane] + CCCCCCCCn1cc[n+](COCCCOC[n+]2ccn(CCCCCCCC)c2C)c1C.O=S(=O)([N-]S(=O)(=O)C(F)(F)F)C(F)(F)F.O=S(=O)([N-]S(=O)(=O)C(F)(F)F)C(F)(F)F", "activity coefficient": 3.45}
{"COMPOUND": "CCC(C)CC [3-methylpentane] + CCCCCCCCn1cc[n+](COCCC)c1C.O=S(=O)([N-]S(=O)(=O)C(F)(F)F)C(F)(F)F", "activity coefficient": 3.05}
{"COMPOUND": "CCO [ethanol] + CCCOC[n+]1ccn(Cc2ccccc2)c1.N#C[N-]C#N", "activity coefficient": 0.59}
{"COMPOUND": "CCCCCCCCCCCCC [tridecane] + CCCOC[n+]1ccn(C)c1.N#C[N-]C#N", "activity coefficient": 916}
{"COMPOUND": "CCC[N+](=O)[O-] [1-nitropropane] + CCCOC[n+]1ccn(Cc2ccccc2)c1.F[B-](F)(F)F", "activity coefficient": 1.14}

----------
Assay: activity coefficient (dimensionless); of the first substance listed, at infinite dilution; xn = mol fraction of the nth substance listed
Settings: 343.15 K; Liquid; Chromatography; x1 = 0

{"COMPOUND": "c1ccccc1 [benzene] + Cn1cc[n+](COCCCOC[n+]2ccn(C)c2)c1.O=S(=O)([N-]S(=O)(=O)C(F)(F)F)C(F)(F)F.O=S(=O)([N-]S(=O)(=O)C(F)(F)F)C(F)(F)F", "activity coefficient": 0.9}
{"COMPOUND": "CC#N [acetonitrile] + CCCCCCCCn1cc[n+](COCCC)c1C.O=S(=O)([N-]S(=O)(=O)C(F)(F)F)C(F)(F)F", "activity coefficient": 0.47}
{"COMPOUND": "CCCCCCCC [octane] + CCCCCCCCn1cc[n+](COCCC)c1C.O=S(=O)([N-]S(=O)(=O)C(F)(F)F)C(F)(F)F", "activity coefficient": 5.17}
{"COMPOUND": "ClCCl [dichloromethane] + CCCCCCCCn1cc[n+](COCCC)c1C.N#C[N-]C#N", "activity coefficient": 0.37}
{"COMPOUND": "CCCCCCCCCCC [undecane] + CCCOC[n+]1ccn(C)c1.N#C[N-]C#N", "activity coefficient": 432}
{"COMPOUND": "CCC(C)=O [butanone] + Cn1cc[n+](COCCCOC[n+]2ccn(C)c2)c1.O=S(=O)([N-]S(=O)(=O)C(F)(F)F)C(F)(F)F.O=S(=O)([N-]S(=O)(=O)C(F)(F)F)C(F)(F)F", "activity coefficient": 0.32}
